Entries and their measured IC50 follow.
target: human FGFR3 wild type enzyme (cytoplasmic domain) (Homo sapiens, UniProt P22607); construct: human FGFR3 wild type enzyme (cytoplasmic domain, from Cama Biosciences); purchased Carna Biosciences; test: FGFR3 wild type mobility shift assay (enzymatic assay, Caliper); assay type: biochemical; conditions: 75 μM ATP, 50 minutes at 30° C.
Sequence (P22607 397-806 limits assumed): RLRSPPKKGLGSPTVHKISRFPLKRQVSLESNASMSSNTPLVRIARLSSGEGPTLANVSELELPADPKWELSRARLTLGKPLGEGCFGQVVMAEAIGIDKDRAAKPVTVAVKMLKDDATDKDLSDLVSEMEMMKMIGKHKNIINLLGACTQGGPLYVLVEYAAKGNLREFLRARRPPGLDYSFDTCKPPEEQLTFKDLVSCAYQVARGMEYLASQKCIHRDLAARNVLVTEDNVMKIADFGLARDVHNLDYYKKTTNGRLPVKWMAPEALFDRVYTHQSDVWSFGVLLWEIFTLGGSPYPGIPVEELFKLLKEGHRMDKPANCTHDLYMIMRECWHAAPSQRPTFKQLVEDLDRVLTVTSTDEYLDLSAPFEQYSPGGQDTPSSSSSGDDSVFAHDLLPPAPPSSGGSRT
Hey, just the number and the unit after it is fine.

# Molecule, IC50
records = [
    ("CCn1cc2[nH]c(=O)c(-c3nc4cc(OC)c(OCCOC)cc4[nH]3)c(N[C@@H](C)c3ncccn3)c2n1", "0.98 nM"),
    ("CCn1cc2[nH]c(=O)c(-c3nc4ccc(OCCOC)cc4[nH]3)c(N[C@@H](C)c3ncccn3)c2n1", "1.64 nM"),
    ("CCn1cc2[nH]c(=O)c(-c3nc4ccc(OC)cc4[nH]3)c(N[C@@H](C)c3ncccn3)c2n1", "3.36 nM"),
]

# input Look at this molecule and give its reported IC50. CCC(Nc1c(-c2nc3cnc(N(C)C)cc3[nH]2)c(=O)[nH]c2cn(C)nc12)c1ncccn1 (single isomer, unassigned)
# output 71.9 nM

# input # iterate: CCC(Nc1c(-c2nc3ccc(OCCOC)cc3[nH]2)c(=O)[nH]c2cn(C)nc12)c1ncccn1 (single isomer, unassigned)
# output 150 nM

# input Same again, this time with CCn1cc2[nH]c(=O)c(-c3nc4cc(OC)c(OC)cc4[nH]3)c(N[C@@H](C)c3ncccn3)c2n1
# output 1.83 nM

# input Try this molecule too: CCC(Nc1c(-c2nc3cc(OC)c(OC)cc3[nH]2)c(=O)[nH]c2cn(CC)nc12)c1ncccn1 (single isomer, unassigned)
# output 3.1 nM

# input Queued: CCn1cc2[nH]c(=O)c(-c3nc4c(F)c(OC)c(OC)cc4[nH]3)c(N[C@@H](C)c3ncccn3)c2n1
# output 3.8 nM

# input Another molecule to look at: CC(C)[C@H](Nc1c(-c2nc3ncc(N(C)C)cc3[nH]2)c(=O)[nH]c2cn(C)nc12)c1ncccn1 (single isomer, unassigned)
# output 3.52 nM

====

target: human FGFR3 wild type enzyme (cytoplasmic domain) (Homo sapiens, UniProt P22607)
Measure name: IC50 (nM)
Provide only the numeric value, understood in nM.

# Compound, IC50, nM
measured = [
    ("CCC(Nc1c(-c2nc3ccc(OC)cc3[nH]2)c(=O)[nH]c2cn(C)nc12)c1ncccn1 (single isomer, unassigned) [Compound 17]", 4.87),
    ("COc1cnc2nc(-c3c(NC(c4ncccn4)C(C)C)c4nn(C)cc4[nH]c3=O)[nH]c2c1 (single isomer, unassigned) [Compound 40]", 5.93),
    ("CC[C@@H](Nc1c(-c2nc3cnc(N(C)C)cc3[nH]2)c(=O)[nH]c2cn(C)nc12)c1ncccn1 [Compound 21]", 1240),
]

# input Please look up its IC50: CCOc1ccc2nc(-c3c(N[C@@H](C)c4ncccn4)c4nn(CC)cc4[nH]c3=O)[nH]c2c1 [Compound 50]
# output 2.96
